Data origin, for the record: paper PMC7024302

System: K. pneumoniae ATCC 700603
Format: cell-based, Klebsiella pneumoniae
Experimental setup: ATCC 700603, 18 h
Residues, ends and D or L forms follow the SMILES beside them.
Property measured: MIC K (µg/mL)

[[record]]
compound = "CCCCCCCCCCCC(=O)N[C@@H](Cc1c[nH]c2ccccc12)C(=O)N[C@@H](CCCNC(=N)N)C(=O)N[C@@H](CCCNC(=N)N)C(N)=O [compound 97, C12-WRR-NH2] (HELM PEPTIDE1{[CCCCCCCCCCCC(=O)[*:2]].W.R.R.[am]}$$$$V2.0)"
assay_result = 256


P: CCCCCCCCCCCCCC(=O)N[C@@H](CCC(N)=O)C(=O)N[C@@H](CCCNC(=N)N)C(=O)N[C@@H](CCCNC(=N)N)C(N)=O [compound 78, C14-QRR-NH2] (HELM PEPTIDE1{[CCCCCCCCCCCCCC(=O)[*:2]].Q.R.R.[am]}$$$$V2.0)
Q: CCCCCCCCCCCCCC(=O)N[C@@H](CC(C)C)C(=O)N[C@@H](CCCNC(=N)N)C(=O)N[C@@H](CCCNC(=N)N)C(N)=O [compound 46, C14-LRR-NH2] (HELM PEPTIDE1{[CCCCCCCCCCCCCC(=O)[*:2]].L.R.R.[am]}$$$$V2.0)
query: Which shows the larger MIC K value: P or Q ? Kindly give the label for the entry you pick.
result: P
(P: 256 µg/mL, Q: 128 µg/mL)
